Reference source for all entries: patent US11702400B2

systemUnderTest: UniProtKB O75116
Sequence (O75116 whole entry): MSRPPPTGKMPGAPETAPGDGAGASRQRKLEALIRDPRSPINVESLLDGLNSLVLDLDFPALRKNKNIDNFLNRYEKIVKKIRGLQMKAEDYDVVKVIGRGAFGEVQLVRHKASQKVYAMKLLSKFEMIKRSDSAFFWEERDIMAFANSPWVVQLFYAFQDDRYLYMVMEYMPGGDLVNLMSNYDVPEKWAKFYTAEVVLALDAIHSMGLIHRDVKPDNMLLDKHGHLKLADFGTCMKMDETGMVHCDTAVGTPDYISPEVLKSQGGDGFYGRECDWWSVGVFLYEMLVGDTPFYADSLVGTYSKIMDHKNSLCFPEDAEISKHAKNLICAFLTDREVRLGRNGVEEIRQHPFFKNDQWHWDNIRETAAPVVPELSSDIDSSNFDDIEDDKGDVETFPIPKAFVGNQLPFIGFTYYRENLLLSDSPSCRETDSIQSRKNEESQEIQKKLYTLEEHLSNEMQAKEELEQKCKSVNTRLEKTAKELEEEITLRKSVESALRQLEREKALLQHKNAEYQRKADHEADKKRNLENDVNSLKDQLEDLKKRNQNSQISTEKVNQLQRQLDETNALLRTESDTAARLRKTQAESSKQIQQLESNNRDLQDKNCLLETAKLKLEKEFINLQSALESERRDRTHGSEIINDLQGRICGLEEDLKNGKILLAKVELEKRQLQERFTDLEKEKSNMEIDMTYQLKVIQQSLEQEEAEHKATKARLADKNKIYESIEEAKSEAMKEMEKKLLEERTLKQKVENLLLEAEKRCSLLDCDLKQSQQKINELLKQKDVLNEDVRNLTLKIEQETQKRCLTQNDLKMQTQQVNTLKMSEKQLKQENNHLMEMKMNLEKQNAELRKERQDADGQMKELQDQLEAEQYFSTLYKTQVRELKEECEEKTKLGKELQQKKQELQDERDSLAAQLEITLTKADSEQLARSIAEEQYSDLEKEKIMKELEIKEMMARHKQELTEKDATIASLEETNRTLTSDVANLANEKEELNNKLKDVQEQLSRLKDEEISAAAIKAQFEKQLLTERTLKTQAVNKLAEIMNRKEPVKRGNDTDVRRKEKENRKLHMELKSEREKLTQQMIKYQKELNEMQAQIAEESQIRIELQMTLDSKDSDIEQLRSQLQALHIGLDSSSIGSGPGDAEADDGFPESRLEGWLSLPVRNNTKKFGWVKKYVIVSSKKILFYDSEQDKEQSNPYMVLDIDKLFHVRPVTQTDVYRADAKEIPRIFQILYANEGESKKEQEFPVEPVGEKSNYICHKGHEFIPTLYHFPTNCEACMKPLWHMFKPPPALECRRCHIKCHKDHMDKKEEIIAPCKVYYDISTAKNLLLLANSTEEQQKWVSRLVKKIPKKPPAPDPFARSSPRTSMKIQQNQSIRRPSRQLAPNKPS
testReadout: IC50 (nM)
Hi! Could you send only the number? It should be in nM, unit omitted.

Notebook entry, UniProtKB O75116 assay: IC50 of COc1cccc([C@@H](CN)NC(=O)c2cc(-c3ccc4[nH]nc(C)c4c3)ccn2)c1 = ?
2
